Test system: SK-OV-3 ovarian
protocol.description: NCI-60 one-dose screen, 48 h (100 = growth as untreated, 0 = no growth, -100 = all killed)
applied.conditions: 10 µM unless noted
This is part of a sample that, as a whole, favours compounds with a hit. Of some 83,000 tested, about 20% had one in any assay.
# growth values compiled below
API: value field is a number in %; no unit string.

As a guide, the following entries are already answered.
Enquiry: # input molecule: COc1ccc(N(C)c2nc(Cl)nc3cnn(C)c23)cc1 ; wanted: its growth
Return: 10.6

Enquiry: May I ask what growth has been recorded for Cc1c(C(=O)O)nnn1-c1nccs1 ?
Return: 90.8

Enquiry: What measured growth goes with C=C1C(=O)O[C@H]2[C@H]1CC/C(COC(=O)/C=C\C(=O)NCc1ccc(Cn3c(=O)sn(-c4ccc(C#N)cc4)c3=O)cc1)=C\CC[C@@]1(C)O[C@@H]21 ?
Return: 37.8

Enquiry: State the recorded growth for this entry: CCCCCCCCCCCCCCCCCC1=NCCN1C(=O)OCCO
Return: 61.7

Enquiry: Give the measured growth of Oc1[nH]c2ccccc2c1/C=c1/cc2c(c(-c3ccc(F)cc3)n1)=Nc1ccccc1-2 .
Return: -7.93

Enquiry: If you can, please state the reported growth value of O=C(O)CC1Sc2ccccc2NC1=O (stereo not drawn) .
Return: 106

Enquiry: Bench note: what growth did C=C(C=O)C1CCC2(C(=O)O)CCC3(C)C(CCC4C5(C)CCC(O)C(C)(C)C5CCC43C)C12 (stereo not drawn) show?
Return: 51

Enquiry: For the molecule shown here, CCC(C)NCc1ccccc1 (stereo not drawn) , give the reported growth.
Return: 101

---
Enquiry: Item under review: CSc1ccc(Cl)c(C(=O)Nc2sccc2C(N)=O)c1 . Reported growth?
Return: 115

Enquiry: Which growth is reported for this molecule? COc1cc(/C=C/c2nc(Nc3ccc(S(=O)(=O)Nc4cc(C)on4)cc3)c3ccccc3n2)ccc1O
Return: 86

Enquiry: Tell me the measured growth of CCCCCOC(=O)c1ccc(NC(=O)CNCC(C)C)cc1 , please.
Return: 95.4

Enquiry: Reported growth for N#Cc1c(N)n2c(nc1=Nc1ccc(Cl)cc1)sc1cc(Cl)ccc12 : what is it?
Return: 77.2

---

# growth listing for each entry below
Test system: SNB-75 CNS
protocol.description: NCI-60 one-dose screen, 48 h (100 = growth as untreated, 0 = no growth, -100 = all killed)
applied.conditions: 10 µM unless noted
This is part of a sample that, as a whole, favours compounds with a hit. Of some 83,000 tested, about 20% had one in any assay.
Respond numerically; units are % and should not be typed.

// worked examples, growth included
Enquiry: Request the reported growth associated with COc1cc2c(cc1OC)-c1ccc3cc4c(cc3c1N(CCCn1ccnc1)C2)OCO4
Return: 13.2

Enquiry: Return reported growth; argument: COc1ccc(-c2cc(-c3cc(OC)ccc3O)[nH]c(=O)c2C#N)cc1
Return: 58.9

Enquiry: Reported growth, compound C[C@@H]1C(=O)N(C[C@H](Cc2ccccc2)N(Cc2ccccc2)Cc2ccccc2)[C@]1(Cc1ccccc1)C(=O)OC(C)(C)C : ____
Return: 71.3

Further cases:
Enquiry: Tell me the measured growth of Cc1cnc(Nc2ccc(OCCN3CCCC3)cc2)nc1NCc1ccco1 , please.
Return: 33.3
